Reference source: patent US4594338A

system: Proteus vulgaris IFO 3167; assay: Minimum inhibitory concentration, Proteus vulgaris IFO 3167; type: cell-based; details: IFO3167
Reported Metric: MIC (µg/mL)
Give the value in µg/mL but do not write µg/mL after it.

Ask | Please report the recorded MIC for CCC1OC(=O)CC(O)C(C)C(OC2OC(C)C(OC3CC(C)(O)C(O)C(C)O3)C(N(C)C)C2O)C(CC=O)CC(C)C(=O)CC(Sc2ccccc2)C(C)=CC1COC1OC(C)C(O)C(OC)C1OC (centres unmarked) [Compound S, 10,11-Dihydro-11-(phenylthio)tylosin] .
Reply | 100

Ask | Would you mind telling me what MIC value was observed for CCC1OC(=O)CC(O)C(C)C(OC2OC(C)C(OC3CC(C)(O)C(O)C(C)O3)C(N(C)C)C2O)C(CC=O)CC(C)C(=O)CC(Sc2ccc(C)cc2)C(C)=CC1COC1OC(C)C(O)C(OC)C1OC (centres unmarked) [Compound V] ?
Reply | 50

---

Could you please report measured MIC for the items listed next?
Write down the numeric answer in µg/mL and omit the unit.

Ask | Find the measured MIC: item CCC1OC(=O)CC(O)C(C)C(OC2OC(C)C(OC3CC(C)(O)C(O)C(C)O3)C(N(C)C)C2O)C(CC(Sc2ccccc2)Sc2ccccc2)CC(C)C(=O)C=CC(C)=CC1COC1OC(C)C(O)C(OC)C1OC (centres unmarked) [Compound C, Tylosin Diphenyl Thioacetal] , target or system Bacillus subtilis PCI 219.
Reply | 0.78

Ask | Identify the measured MIC of CCC1OC(=O)CC(O)C(C)C(OC2OC(C)C(O)C(N(C)C)C2O)C(CC=O)CC(C)C(=O)CC(Sc2ccc(N)cc2)C(C)=CC1COC1OC(C)C(O)C(OC)C1OC (centres unmarked) [Compound P] for Bacillus subtilis PCI 219.
Reply | 3.12

Ask | For the record CCC1OC(=O)CC(O)C(C)C(OC2OC(C)C(O)C(N(C)C)C2O)C(CC=O)CC(C)C(=O)CC(Sc2ccccc2)C(C)=CC1COC1OC(C)C(O)C(OC)C1OC (centres unmarked) [Compound Q] , what value of MIC is listed for Bacillus subtilis PCI 219?
Reply | 0.78

Ask | Request body: readout MIC, system Bacillus subtilis PCI 219, query CCSC1CC(=O)C(C)CC(CC=O)C(OC2OC(C)C(O)C(N(C)C)C2O)C(C)C(O)CC(=O)OC(CC)C(COC2OC(C)C(O)C(OC)C2OC)C=C1C (centres unmarked) [Compound N] . Return the value.
Reply | 0.78

Ask | Please tell me: MIC of CCC1OC(=O)CC(O)C(C)C(OC2OC(C)C(OC3CC(C)(O)C(O)C(C)O3)C(N(C)C)C2O)C(CC=O)CC(C)C(=O)CC(Sc2ccc(Cl)cc2)C(C)=CC1COC1OC(C)C(O)C(OC)C1OC (centres unmarked) [Compound T] , system Bacillus subtilis PCI 219?
Reply | 0.4

Ask | Request: MIC, test system Bacillus subtilis PCI 219, entry CCSC1CC(=O)C(C)CC(CC=O)C(OC2OC(C)C(OC3CC(C)(O)C(O)C(C)O3)C(N(C)C)C2O)C(C)C(O)CC(=O)OC(CC)C(COC2OC(C)C(O)C(OC)C2OC)C=C1C (centres unmarked) [Compound R, 11-(Ethylthio)-10,11-dihydrotylosin]
Reply | 0.78

Ask | What is its MIC for Bacillus subtilis PCI 219? Entry: CCC1OC(=O)CC(O)C(C)C(OC2OC(C)C(OC3CC(C)(O)C(O)C(C)O3)C(N(C)C)C2O)C(CC=O)CC(C)C(=O)CC(Sc2ccc(N)cc2)C(C)=CC1COC1OC(C)C(O)C(OC)C1OC (centres unmarked) [Compound U]
Reply | 0.4

Ask | Give MIC (Bacillus subtilis PCI 219) of the following compound: CCC1OC(=O)CC(O)C(C)C(OC2OC(C)C(O)C(N(C)C)C2O)C(CC=O)CC(C)C(=O)CC(SCCO)C(C)=CC1COC1OC(C)C(O)C(OC)C1OC (centres unmarked) [O]
Reply | 12.5

Ask | Find MIC (Bacillus subtilis PCI 219) for the entry CCC1OC(=O)CC(O)C(C)C(OC2OC(C)C(OC3CC(C)(O)C(O)C(C)O3)C(N(C)C)C2O)C(CC=O)CC(C)C(=O)CC(Sc2ccc(OC)cc2)C(C)=CC1COC1OC(C)C(O)C(OC)C1OC (centres unmarked) [Compound W]
Reply | 0.4

Ask | Write down the reported MIC of CCC1OC(=O)CC(O)C(C)C(OC2OC(C)C(OC3CC(C)(O)C(O)C(C)O3)C(N(C)C)C2O)C(CC=O)CC(C)C(=O)CC(Sc2ccc(C)cc2)C(C)=CC1COC1OC(C)C(O)C(OC)C1OC (centres unmarked) [Compound V] , test system: Bacillus subtilis PCI 219.
Reply | 0.4

Ask | Enter reported MIC observed with Bacillus subtilis PCI 219 for CCC1OC(=O)CC(O)C(C)C(OC2OC(C)C(OC3CC(C)(O)C(O)C(C)O3)C(N(C)C)C2O)C(CC=O)CC(C)C(=O)CC(Sc2ccccc2)C(C)=CC1COC1OC(C)C(O)C(OC)C1OC (centres unmarked) [Compound S, 10,11-Dihydro-11-(phenylthio)tylosin]
Reply | 0.4
